# Test system: NCI-H522 lung
# Assay Explanation: NCI-60 one-dose screen, 48 h
# Condition Summary: 10 µM unless noted
This is part of a sample that, as a whole, favours compounds with a hit. Of some 83,000 tested, about 20% had one in any assay. Calls of active or inactive are those of the source. The calls were made as follows: active = growth percent below 10; inactive = the rest.
Hi there, use one of these labels in your reply, thanks! Y (active), N (inactive)

Incoming: Per the records of this test, what outcome belongs to `O=C(CO[N+](=O)[O-])Nc1ccc(C(=O)/C=C/c2ccc(Cl)cc2)cc1` ?
Outgoing: N

Incoming: Per the assay record, what outcome was assigned to `CC[C@H](Nc1ncnc(N)c1C(N)=O)c1nc2cccc(NCc3ccc(C(=O)NO)cc3)c2c(=O)n1-c1ccccc1` ?
Outgoing: N

Incoming: I would be grateful if you could indicate the recorded call for `O=C1C[C@H](N2C(=O)c3ccccc3S2(=O)=O)C2CO[C@@H]1O2` .
Outgoing: Y

Incoming: Any idea what this test logged for `CC[C@]12C=CCN3CC[C@@]4(c5ccc(OC)cc5N(C)[C@H]4[C@@](O)(C(=O)OC)[C@@H]1OC(=O)CCC(=O)N[C@@H](Cc1c[nH]c4ccccc14)C(=O)OC)[C@@H]32` ?
Outgoing: N

Incoming: So what was the verdict on `Cc1csc2ccc(Cl)cc12` in this test?
Outgoing: N

Incoming: Per the assay record, what outcome was assigned to `CNc1cc2nc3cc(NC)c(C)cc3cc2cc1C` ?
Outgoing: Y

Incoming: For `CC/C=C\C[C@H](F)C/C=C1/C(=O)C=C[C@@H]1C/C=C\CCCC(=O)OC` , which call appears in the assay record?
Outgoing: Y

Incoming: What call does the record list for `Nc1c(C(=O)Nc2cccc3c2OCCO3)sc2nc3c(cc12)CN(Cc1ccccc1)CC3` ?
Outgoing: N

Incoming: GET /call?item= `CCN(CC)c1ccc(/C=C/C2=[N+](C)c3ccccc3C2(C)C)cc1` returns the recorded outcome of this test.
Outgoing: Y

Incoming: What outcome does the record of this test show for `COc1ccc2c(c1)C(=O)/C(=C/c1cccc(OCC(=O)Nc3nc4c(s3)CCCC4)c1)O2` ?
Outgoing: Y

----------
# Test system: OVCAR-5 ovarian
# Assay Explanation: NCI-60 one-dose screen, 48 h
# Condition Summary: 10 µM unless noted
This is part of a sample that, as a whole, favours compounds with a hit. Of some 83,000 tested, about 20% had one in any assay. The source made the active and inactive calls. Rule for the calls: active = growth percent below 10; inactive = the rest.
Hi there, use one of these labels in your reply, thanks! true (1) = active, false (0) = inactive

Incoming: Please indicate how the test categorized `CSc1nc(NCCCNc2ccnc3cc(Cl)ccc23)cc(-c2ccccc2)n1` .
Outgoing: false (0)

Incoming: What classification did `Nc1cc2nc3ccccc3sc-2cc1=O` end up with in this test?
Outgoing: false (0)

Incoming: Which result was noted for this compound in the test: `COc1ccc(OCC(=O)Nc2ccc(-c3nc4ccccc4s3)cc2C)cc1`
Outgoing: false (0)

Incoming: Field: outcome | Entry: `O=C(Nc1cccc2[nH]c(C(F)(F)F)nc12)c1ccc(Br)cc1F`
Outgoing: false (0)

Incoming: Just curious, what result did `CCCCCCCCCc1cc(CN2CCCCC2)c(O)c(CN2CCCCC2)c1` get here?
Outgoing: false (0)

Incoming: # outcome recorded in this test, key = COc1cc(C2CC(=O)Nc3c2cnn3Cc2ccco2)cc2c1OCCO2 (stereo not given)
Outgoing: false (0)

Incoming: Short answer needed: outcome of this test for `CCN(CC)CCC(=O)Nc1ccc(Cn2nnc3c2C(=O)c2nnn(Cc4ccc(NC(=O)CCN(CC)CC)cc4)c2C3=O)cc1` ?
Outgoing: true (1)

Incoming: How did this test come out for `COc1ccc2nc3cc(Cl)ccc3c(N3CCN(c4nccc(NCc5ccccc5)n4)CC3)c2c1` ?
Outgoing: false (0)

Incoming: Just curious, what result did COc1ccc(C2c3ccc4ccccc4c3Oc3ncnc(N)c32)cc1 (stereo not given) get here?
Outgoing: false (0)

Incoming: What classification did `N#Cc1c(N)nc(N)nc1Nc1ccc(Br)cc1` end up with in this test?
Outgoing: false (0)
